B1: F1*; the commonest letter at each place (parent)
chain: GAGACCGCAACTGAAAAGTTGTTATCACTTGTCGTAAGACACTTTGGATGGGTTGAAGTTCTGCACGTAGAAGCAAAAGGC

# Variants of: B1
# TEST METHOD NOTES: fraction ligated after 30 min (ligated reads / total reads); higher = more ligase activity
# CONDITION DESCRIPTION: with F1*sub RNA substrate (template-directed ligation), 42 °C

RECORD SEQUENCE | fraction ligated
GAGACCGCAACTGAAAAGTTGTTATAACTTGACGTAAGACACTTTGGATGGGTTGAAGTTCTGCACGTAGAAGCAAAAGGC [C26A T32A] | 0.48
GAGACCGCAACTGAAAAGTTGTTATCAGTTGTCGTAAGACACTTTAGATGGGTTGAAGTTCTGCACGTAGAAGCAAAAGGC [C28G G46A] | 0.811
GAGACCGCAACTGAAAAGTTGTTGTCACTTGTCTTAAGACACTTTGGATGGGTTGAAGTTCTGCACGTAGAAGCAAAAGGC [A24G G34T] | 0.729
GAGACCGCAACTGAAAAGTTGTTATCACTTGTCATGAGACACTTTGGATGGGTTGAAGTTCTGCACGTAGAAGCAAAAGGC [G34A A36G] | 0.846
GAGACCGCAACTGAAAAGTTGTGATCACTTGTCGTAAGACACTTTGGATGGGTTTAAGTTCTGCACGTAGAAGCAAAAGGC [T23G G55T] | 0.826
GAGACCGCAACTGAAAAGTTGTTATCACTTGTCGTAAGACCCTTTGGATGGGTTGAGGTTCTGCACGTAGAAGCAAAAGGC [A41C A57G] | 0.773
GAGACCGCAACTGAAAAGTTGTTGTCACTTGTCGTAAGACACTTTGGATGGGTTCAAGTTCTGCACGTAGAAGCAAAAGGC [A24G G55C] | 0.18
GAGACCGCAACTGAAAAGTTGTTATCACCTGTCCTAAGACACTTTGGATGGGTTGAAGTTCTGCACGTAGAAGCAAAAGGC [T29C G34C] | 0.793
GAGACCGCAACTGAAAAGTTGTTATAACTTCTCGTAAGACACTTTGGATGGGTTGAAGTTCTGCACGTAGAAGCAAAAGGC [C26A G31C] | 0.226
GAGACCGCAACTGAAAAGTTGTTCTCACTTGTCGTAAGACACTTTGGATGGGTTGACGTTCTGCACGTAGAAGCAAAAGGC [A24C A57C] | 0.368
GAGACCGCAACTGAAAAGTTGTTATCACTTGTCGTTAGACACTTTGGATGGGTTGATGTTCTGCACGTAGAAGCAAAAGGC [A36T A57T] | 0.824
GAGACCGCAACTGAAAAGTTGTTTTAACTTGTCGTAAGACACTTTGGATGGGTTGAAGTTCTGCACGTAGAAGCAAAAGGC [A24T C26A] | 0.217
GAGACCGCAACTGAAAAGTTGTTAGCACTTGTCGTAAGCCACTTTGGATGGGTTGAAGTTCTGCACGTAGAAGCAAAAGGC [T25G A39C] | 0.373
GAGACCGCAACTGAAAAGTTGTTATCACTTTTCGTAAGACACTTTGGATGGGTTGTAGTTCTGCACGTAGAAGCAAAAGGC [G31T A56T] | 0.755
GAGACCGCAACTGAAAAGTTGTTATCACTAGTCATAAGACACTTTGGATGGGTTGAAGTTCTGCACGTAGAAGCAAAAGGC [T30A G34A] | 0.833
GAGACCGCAACTGAAAAGTTGTTATCACTTGCCGTAATACACTTTGGATGGGTTGAAGTTCTGCACGTAGAAGCAAAAGGC [T32C G38T] | 0.768
GAGACCGCAACTGAAAAGTTGTTATCACTTGTCGTCAGCCACTTTGGATGGGTTGAAGTTCTGCACGTAGAAGCAAAAGGC [A36C A39C] | 0.803
GAGACCGCAACTGAAAAGTTGTTATCACTTGTGGTAAGACACTTTGGAAGGGTTGAAGTTCTGCACGTAGAAGCAAAAGGC [C33G T49A] | 0.596
GAGACCGCAACTGAAAAGTTGTTATCACTTGTCGTAAGACACCTAGGATGGGTTGAAGTTCTGCACGTAGAAGCAAAAGGC [T43C T45A] | 0.574
GAGACCGCAACTGAAAAGTTGTTATCACTTGGCGTAAGACAATTTGGATGGGTTGAAGTTCTGCACGTAGAAGCAAAAGGC [T32G C42A] | 0.845
GAGACCGCAACTGAAAAGTTGTTATCACTTGTCGGAAGACAGTTTGGATGGGTTGAAGTTCTGCACGTAGAAGCAAAAGGC [T35G C42G] | 0.857
GAGACCGCAACTGAAAAGTTGTTATCACTTGTCGTAAGACACTTTATATGGGTTGAAGTTCTGCACGTAGAAGCAAAAGGC [G46A G47T] | 0.115
GAGACCGCAACTGAAAAGTTGTTATCACTTGTCGTAAGATACTTTGGATGGGTTGACGTTCTGCACGTAGAAGCAAAAGGC [C40T A57C] | 0.823
GAGACCGCAACTGAAAAGTTGTTATCACTTGTCGGAAGACATTTTGGATGGGTTGAAGTTCTGCACGTAGAAGCAAAAGGC [T35G C42T] | 0.838
GAGACCGCAACTGAAAAGTTGTTATCACTTGTCGTCAGACACTTTGGATAGGTTGAAGTTCTGCACGTAGAAGCAAAAGGC [A36C G50A] | 0.619
GAGACCGCAACTGAAAAGTTGTTATTACTTGTCGTCAGACACTTTGGATGGGTTGAAGTTCTGCACGTAGAAGCAAAAGGC [C26T A36C] | 0.788
GAGACCGCAACTGAAAAGTTGTTATCACTTGTCGTAAGATACTTCGGATGGGTTGAAGTTCTGCACGTAGAAGCAAAAGGC [C40T T45C] | 0.77
GAGACCGCAACTGAAAAGTTGTCATCACTTGTCGTAAGACACTTTGGATGGGTTGACGTTCTGCACGTAGAAGCAAAAGGC [T23C A57C] | 0.81
GAGACCGCAACTGAAAAGTTGTTATCACTTGTCGTATGACACTTTCGATGGGTTGAAGTTCTGCACGTAGAAGCAAAAGGC [A37T G46C] | 0.8
GAGACCGCAACTGAAAAGTTGTTATCACTTGTCGTAAGACCCTTTTGATGGGTTGAAGTTCTGCACGTAGAAGCAAAAGGC [A41C G46T] | 0.676
GAGACCGCAACTGAAAAGTTGTTATCACTTGACGTAACACACTTTGGATGGGTTGAAGTTCTGCACGTAGAAGCAAAAGGC [T32A G38C] | 0.82
GAGACCGCAACTGAAAAGTTGTTATCACTTTTTGTAAGACACTTTGGATGGGTTGAAGTTCTGCACGTAGAAGCAAAAGGC [G31T C33T] | 0.777
GAGACCGCAACTGAAAAGTTGTTATCACTTGTTGTAAGACACATTGGATGGGTTGAAGTTCTGCACGTAGAAGCAAAAGGC [C33T T43A] | 0.831
GAGACCGCAACTGAAAAGTTGTTATCACATGTCGTAAAACACTTTGGATGGGTTGAAGTTCTGCACGTAGAAGCAAAAGGC [T29A G38A] | 0.85
GAGACCGCAACTGAAAAGTTGTTATCTCTTGTCGTAAGACACTTTGGATGGGTTGAGGTTCTGCACGTAGAAGCAAAAGGC [A27T A57G] | 0.794
GAGACCGCAACTGAAAAGTTGTAATCACTTGTCGTAAGACGCTTTGGATGGGTTGAAGTTCTGCACGTAGAAGCAAAAGGC [T23A A41G] | 0.765
GAGACCGCAACTGAAAAGTTGTTATCACTTGTCGTAAGACACTATGTATGGGTTGAAGTTCTGCACGTAGAAGCAAAAGGC [T44A G47T] | 0.55

Sourced from the supplement of paper PMC6755084
